Tested on: Plasmodium falciparum
Assay: GSK_TCMDC: Inhibition of Plasmodium falciparum Dd2 in whole red blood cells, using parasite LDH activity as an index of growth. Test compounds present at 2uM
Type: functional
outcome.measure: Inhibition (%)

• COc1ccc(NS(=O)(=O)c2cccc(C(=O)Nc3ccc(C(F)(F)F)cc3)c2)cc1N1CCN(CC(C)C)CC1.O=C(O)C(F)(F)F = 4
• CC1CCCN1Cc1cccc(-c2ccc(C(=O)NCCOc3ccccc3)s2)c1.O=C(O)C(F)(F)F (stereo not drawn) = 0
• COc1ccc(Nc2ncc3c(-c4cccc(NC(=O)Cc5cccnc5)c4)c[nH]c3n2)cc1OC = 85
• Cl.Oc1ccc(Nc2nc(NCC3CCCO3)c3ccccc3n2)cc1 (stereo not drawn) = 57
• Cl.NOCCCCOc1cc(Cl)c(Cl)cc1Cl = 5
• COc1ccc(CNCc2ccccc2)cc1-c1ccc(OC)c(S(=O)(=O)NCCN2CCCC2)c1.O=C(O)C(F)(F)F = 55
• Cc1cc(C(F)(F)F)n2nc(C(=O)N(Cc3cncn3Cc3ccccc3F)CC3CC3)cc2n1 = 100
• CCCCN(Cc1cc(Cl)c(OCC)c(OC)c1)c1ccc(C(O)(C(F)(F)F)C(F)(F)F)cc1.O=C(O)C(F)(F)F = 97
• CC1CCC(C(C)C)C(OC(=O)CSc2nnc3c(n2)[nH]c2ccccc23)C1 (stereo not drawn) = 74
• Cc1ccc2c(c1)c(-c1ccccc1)c(-c1ccccc1)n2CC(O)CN1CCN(CC=Cc2ccccc2)CC1 (stereo not drawn) = 98
• COc1cc(NC(=O)c2sc(-c3ccc(Cl)cc3)cc2NC(=O)c2cccc(N(C)C)c2)ccc1OCCN1CCCC1 = 67
• CCN(CC)c1nc(Nc2cc(C)ccc2C)nc(Nc2ccccc2O)n1 = 99
• CNCCCn1c(N(C)C)nc2cc(-n3cnc4cc(-c5ccc(Cl)cc5)sc4c3=O)ccc21.O=C(O)C(F)(F)F = 27
• CN1c2ccccc2Sc2cc(CNCCSCCNCc3ccc4c(c3)Sc3ccccc3N4C)ccc21.Cl = 44
• Cc1[nH]c(C)c(-c2ccc(Oc3ccc(Cl)cc3)cc2)c(=O)c1Cl = 16
• O=C(O)C(F)(F)F.Oc1ccc(CCNc2nc(NCCCOc3ccccc3-c3ccc(F)cc3)nc(N3CCNCC3)n2)cc1 = 8
• Cl.Clc1ccc(OCCC2CCN(CCCCCCN3CCCCC3)CC2)cc1Cl = 36
• Cc1ccc(CNC(=O)[C@H](Cc2ccccc2)Nc2cc(C)nc(NCCc3ccc(F)cc3)n2)cc1.O=C(O)C(F)(F)F = 22
